- System: OVCAR-4
- experimental-details: Cytotoxicity against Homo sapiens (human) OVCAR4 cells assessed as growth inhibition at 10 uM after 48 hr by coulter counter analysis
- Format: functional
- reported-conditions: OVCAR-4, 48 h, read-out: GI
metric-name: inhibition of growth at 10 µM

Examples from the recorded data:
                              smiles_record  tested_target  obs_value
0  COc1ccc(-n2c(S)nnc2CSc2nc3ccccc3c(=O)n2CCc2ccccc2)cc1        OVCAR-4      < 10%
1  O=C1c2ccccc2C(=O)N1CCCSc1nc2ccccc2c(=O)n1CCc1ccccc1        OVCAR-4      < 10%
2  O=c1c2ccccc2nc(SCc2ccc([N+](=O)[O-])cc2)n1CCc1ccccc1        OVCAR-4      < 10%

inhibition of growth at 10 µM of `O=C(CSc1nc2ccccc2c(=O)n1CCc1ccccc1)c1ccc(F)cc1` on OVCAR-4?
< 10%

inhibition of growth at 10 µM of `O=c1c2ccccc2nc(SCCN2CCCCC2)n1CCc1ccccc1` on OVCAR-4?
14%

inhibition of growth at 10 µM of `O=C(CSc1nc2ccccc2c(=O)n1CCc1ccccc1)c1ccccc1` on OVCAR-4?
< 10%

inhibition of growth at 10 µM of `CSc1nc2ccccc2c(=O)n1CCc1ccccc1` on OVCAR-4?
21%

inhibition of growth at 10 µM of `O=c1c2ccccc2nc(SCCN2CCOCC2)n1CCc1ccccc1` on OVCAR-4?
< 10%

inhibition of growth at 10 µM of `O=c1c2ccccc2nc(SCc2nnc(S)n2Cc2ccccc2)n1CCc1ccccc1` on OVCAR-4?
< 10%

inhibition of growth at 10 µM of `O=c1c2ccccc2nc(SCc2nnc(S)n2-c2ccccc2)n1CCc1ccccc1` on OVCAR-4?
< 10%

inhibition of growth at 10 µM of `CCn1c(S)nnc1CSc1nc2ccccc2c(=O)n1CCc1ccccc1` on OVCAR-4?
15%

inhibition of growth at 10 µM of `O=c1c2ccccc2[nH]c(=S)n1CCc1ccccc1` on OVCAR-4?
< 10%

* * *

- System: A498
- experimental-details: Cytotoxicity against Homo sapiens (human) A498 cells assessed as growth inhibition at 10 uM after 48 hr by coulter counter analysis
- Assay type: functional
- reported-conditions: A498, 48 h, read-out: GI
# reported inhibition of growth at 10 µM; entries follow
Value expressed in %; do not type the unit.

In [3]: df
Out[3]:
                              smiles_record  unit_descriptor  obs_value
0  O=C1c2ccccc2C(=O)N1CCCSc1nc2ccccc2c(=O)n1CCc1ccccc1                %         20
1            CSc1nc2ccccc2c(=O)n1CCc1ccccc1                %         18
2  O=C(CSc1nc2ccccc2c(=O)n1CCc1ccccc1)c1ccccc1                %         46
3  O=c1c2ccccc2nc(SCc2nnc(S)n2-c2ccccc2)n1CCc1ccccc1                %         41
4         O=c1c2ccccc2[nH]c(=S)n1CCc1ccccc1                %         46
5   O=c1c2ccccc2nc(SCCN2CCCCC2)n1CCc1ccccc1                %         17

Below: the item to evaluate.
Which inhibition of growth at 10 µM reading was recorded for the compound `COc1ccc(-n2c(S)nnc2CSc2nc3ccccc3c(=O)n2CCc2ccccc2)cc1` ?
51

These data points were gathered from ChEMBL document CHEMBL3044826.
